The values you see were collected from ChEMBL document CHEMBL3351877.

test system: A549; test: Cytotoxicity against human A549 cells assessed as reduction in cell viability after 24 hrs by WST8 assay; type: functional, cell-based; details: A549, 24 h
This listing pairs molecules with measured IC50.
Please state the figure in µM; there is no need to write the unit.

> print(dat)
                         structure.notation  quantity.name  units  experimental.value
1  COc1ccc2c(C(=O)/C(C#N)=C/c3c[nH]c4cc(F)ccc34)c[nH]c2c1           IC50     µM                 2.4
2  COc1ccc2[nH]cc(/C=C(\C#N)C(=O)c3c[nH]c4cc(F)ccc34)c2c1           IC50     µM                  18
3  COc1ccc2c(C(=O)/C(C#N)=C/c3c[nH]c4ccccc34)c[nH]c2c1           IC50     µM                 6.4

Next up:
*Q* What value of measured IC50 is listed for COc1ccc2c(/C=C(\C#N)C(=O)c3c[nH]c4cc(F)ccc34)c[nH]c2c1 ?
*A* 10.3

###

This listing pairs compounds with measured IC50.
system: A549; test: Cytotoxicity against human A549 cells assessed as reduction in cell viability after 48 hrs by WST8 assay; assay type: functional, cell-based; conditions: A549, 48 h
Please state the figure in µM; there is no need to write the unit.

These solved cases illustrate the format of a correct answer.
> print(dat)
                         structure.notation  experimental.value
1  N#C/C(=C\c1c[nH]c2ccccc12)C(=O)c1c[nH]c2ccccc12                  22
2  COc1ccc2c(/C=C(\C#N)C(=O)c3c[nH]c4cc(F)ccc34)c[nH]c2c1                 5.5

*Q* What value of measured IC50 is listed for COc1ccc2c(C(=O)/C(C#N)=C/c3c[nH]c4ccccc34)c[nH]c2c1 ?
*A* 7.5

###

This listing pairs compounds with measured log10 of IC50.
tested on: A549; assay: Cytotoxicity against human A549 cells assessed as reduction in cell viability after 24 hrs by WST8 assay; assay type: functional, cell-based; conditions: A549, 24 h
Annotation: log10 of IC50, µM basis.

> print(dat)
                         structure.notation  quantity.name  experimental.value
1  COc1ccc(Cn2cc(/C=C(\C#N)C(=O)c3c[nH]c4cc(OC)ccc34)c3ccccc32)cc1  log10 of IC50                1.57

*Q* What value of measured log10 of IC50 is listed for N#C/C(=C\c1c[nH]c2ccccc12)C(=O)c1c[nH]c2ccccc12 ?
*A* 1.21

*Q* What value of measured log10 of IC50 is listed for Cn1cc(/C=C(\C#N)C(=O)c2c[nH]c3ccccc23)c2ccccc21 ?
*A* 1.45

*Q* What value of measured log10 of IC50 is listed for COc1ccc2[nH]cc(/C=C(\C#N)C(=O)c3c[nH]c4ccccc34)c2c1 ?
*A* 0.82

*Q* What value of measured log10 of IC50 is listed for COc1ccc(-c2[nH]c3ccccc3c2/C=C(\C#N)C(=O)c2c[nH]c3ccccc23)cc1 ?
*A* 0.69

###

assay: Cytotoxicity against human MIAPaCa2 cells assessed as reduction in cell viability after 48 hrs by WST8 assay; assay type: functional, cell-based; settings: MIA PaCa-2, 48 h
quantity-name: IC50 (µM)
Please state the figure in µM; there is no need to write the unit.

> print(dat)
                         structure.notation  quantity.name  experimental.value
1  COc1ccc2c(C(=O)/C(C#N)=C/c3cn(Cc4ccc(Cl)cc4)c4ccccc34)c[nH]c2c1           IC50                40.4
2  N#C/C(=C\c1c[nH]c2cc(F)ccc12)C(=O)c1c[nH]c2ccccc12           IC50                31.6
3  COc1ccc(Cn2cc(/C=C(\C#N)C(=O)c3c[nH]c4cc(F)ccc34)c3ccccc32)cc1           IC50                29.4
4  N#C/C(=C\c1c[nH]c2ccccc12)C(=O)c1c[nH]c2ccccc12           IC50                36.8

Next up:
*Q* What value of measured IC50 is listed for COc1ccc2[nH]cc(/C=C(\C#N)C(=O)c3c[nH]c4ccccc34)c2c1 ?
*A* 25.1

###

assay: Cytotoxicity against human MIAPaCa2 cells assessed as reduction in cell viability after 24 hrs by WST8 assay; format: functional, cell-based; conditions: MIA PaCa-2, 24 h
quantity-name: pIC50
pIC50 (log units): -log10 of the concentration in mol/L.

> print(dat)
                         structure.notation  quantity.name  experimental.value
1  N#C/C(=C\c1cn(Cc2ccc(Cl)cc2)c2ccc(Br)cc12)C(=O)c1c[nH]c2ccccc12          pIC50                4.42
2  COc1ccc2c(C(=O)/C(C#N)=C/c3c[nH]c4ccccc34)c[nH]c2c1          pIC50                4.87
3  N#C/C(=C\c1c[nH]c2cc(F)ccc12)C(=O)c1c[nH]c2ccccc12          pIC50                4.63

Next up:
*Q* What value of measured pIC50 is listed for COc1ccc2[nH]cc(/C=C(\C#N)C(=O)c3c[nH]c4ccc(OC)cc34)c2c1 ?
*A* 4.55

###

This listing pairs compounds with measured IC50.
test: Cytotoxicity against human MIAPaCa2 cells assessed as reduction in cell viability after 48 hrs by WST8 assay; format: functional, cell-based; details: MIA PaCa-2, 48 h

> print(dat)
                         structure.notation  quantity.name  experimental.value
1  COc1ccc2c(/C=C(\C#N)C(=O)c3c[nH]c4ccccc34)c[nH]c2c1           IC50             > 50 µM
2  COc1ccc(Cn2cc(/C=C(\C#N)C(=O)c3c[nH]c4cc(OC)ccc34)c3ccccc32)cc1           IC50             > 50 µM
3  COc1ccc2c(C(=O)/C(C#N)=C/c3c[nH]c4ccccc34)c[nH]c2c1           IC50             > 50 µM
4  COc1ccc(Cn2cc(/C=C(\C#N)C(=O)c3c[nH]c4ccccc34)c3ccccc32)cc1           IC50             > 50 µM

Next up:
*Q* What value of measured IC50 is listed for COc1ccc2[nH]cc(/C=C(\C#N)C(=O)c3c[nH]c4ccc(OC)cc34)c2c1 ?
*A* > 50 µM

###

assay: Cytotoxicity against human MIAPaCa2 cells assessed as reduction in cell viability after 24 hrs by WST8 assay; type: functional, cell-based; conditions: MIA PaCa-2, 24 h
quantity-name: IC50

> print(dat)
                         structure.notation  quantity.name  experimental.value
1  COc1ccc2c(/C=C(\C#N)C(=O)c3c[nH]c4cc(OC)ccc34)c[nH]c2c1           IC50             > 50 µM
2  N#C/C(=C\c1c[nH]c2cc(F)ccc12)C(=O)c1c[nH]c2cc(F)ccc12           IC50             > 50 µM
3  COc1ccc2c(/C=C(\C#N)C(=O)c3c[nH]c4cc(F)ccc34)c[nH]c2c1           IC50             > 50 µM
4  COc1ccc2c(C(=O)/C(C#N)=C/c3cn(Cc4ccc(Cl)cc4)c4ccccc34)c[nH]c2c1           IC50             > 50 µM
5  N#C/C(=C\c1c[nH]c2ccc(Br)cc12)C(=O)c1c[nH]c2ccc(Br)cc12           IC50             > 50 µM
6  COc1ccc(Cn2cc(/C=C(\C#N)C(=O)c3c[nH]c4cc(F)ccc34)c3ccccc32)cc1           IC50             > 50 µM

*Q* What value of measured IC50 is listed for COc1ccc(Cn2cc(/C=C(\C#N)C(=O)c3c[nH]c4cc(OC)ccc34)c3ccccc32)cc1 ?
*A* > 50 µM

###

tested on: A549; test: Cytotoxicity against human A549 cells assessed as reduction in cell viability after 48 hrs by WST8 assay; assay type: functional, cell-based; conditions: A549, 48 h
pIC50: −log10 of the molar value.
# label = yes (1) if pIC50 >= 5 else no (0)

> print(dat)
                         structure.notation  assayed.target  class.label
1  COc1ccc2c(/C=C(\C#N)C(=O)c3c[nH]c4ccccc34)c[nH]c2c1            A549      yes (1)

Shift focus to the following entry.
*Q* Hi team, for N#C/C(=C\c1cn(Cc2ccc(Cl)cc2)c2ccccc12)C(=O)c1c[nH]c2ccccc12 , is the recorded pIC50 at or above 5?
*A* no (0)
